Every entry's value here was drawn from paper PMC12040169.

# METHOD NOTES: in vitro
# EXPERIMENTAL CONDITIONS: human, hela cells, % viability
Property: viability at 28.5 h, 10 µM; scope: individual molecules
ASSAY METRIC: viability at 28.5 h, 10 µM

{"MOLECULE": "O=C(Nc1ccccc1)N[C@H]1CO[C@H]2[C@@H]1OC[C@H]2OC(=O)Nc1ccccc1", "ASSAY METRIC": "viability at 28.5 h, 10 µM", "MEASURED VALUE": "89.1%"}
{"MOLECULE": "CCc1nc2ccc(C(=O)N3CCNC(=O)C3)cn2c1N(CCC(C)C)CCN(C)C", "ASSAY METRIC": "viability at 28.5 h, 10 µM", "MEASURED VALUE": "92.4%"}
{"MOLECULE": "CCc1ccc(OC)c(S(=O)(=O)N2CCOCC2)c1", "ASSAY METRIC": "viability at 28.5 h, 10 µM", "MEASURED VALUE": "117%"}
{"MOLECULE": "O=C(COc1ccc2ccccc2c1)N1CCN(S(=O)(=O)c2ccc([N+](=O)[O-])cc2)CC1", "ASSAY METRIC": "viability at 28.5 h, 10 µM", "MEASURED VALUE": "98%"}
{"MOLECULE": "CCCC(=O)c1ccc(S(=O)(=O)N2CCCN(Cc3c[nH]nc3-c3ccccc3)CC2)cc1", "ASSAY METRIC": "viability at 28.5 h, 10 µM", "MEASURED VALUE": "83.9%"}
{"MOLECULE": "COc1ccc(C)cc1NS(=O)(=O)CC(C)C", "ASSAY METRIC": "viability at 28.5 h, 10 µM", "MEASURED VALUE": "93.8%"}
{"MOLECULE": "CN1CCC[C@H]1c1nc(-c2ccc(-n3ccnc3)nc2)no1", "ASSAY METRIC": "viability at 28.5 h, 10 µM", "MEASURED VALUE": "96.6%"}
{"MOLECULE": "COC1C(O)C(CO)OC1n1cc(F)c(=O)[nH]c1=O (stereo not drawn)", "ASSAY METRIC": "viability at 28.5 h, 10 µM", "MEASURED VALUE": "91.4%"}
{"MOLECULE": "O=C(NCCCn1ccnc1)c1ncoc1-c1ccccc1", "ASSAY METRIC": "viability at 28.5 h, 10 µM", "MEASURED VALUE": "99%"}
